The reported measurements were obtained from patent US10835542B2.

# method: Intra-pulmonary (ELF, AC/AM by BAL) and plasma PK after multiple iv doses in healthy adult subjects
# Type: in vivo, human
# setup.conditions: human, alveolar cells (AC) / plasma, intravenous, 100 mg, based on AUC0-24 of mean concentrations; read-out: Ratio AC:Plasma (AUCmean)
# Method: Concomitant blood samples were taken to compare tissue with serum antibiotic concentrations. […] One standard bronchoscopy was performed for each subject. […] A blood sample was taken at the time of bronschoscopy for plasma urea measurement. […] All the biofluid concentrations were expressed in ng/mL. All concentrations below the limit of quantification (BLQ) or missing data were labeled as such in the concentration data listings. […]
measured.endpoint: Kp
Lab note: jot the number down without any unit.

What Kp value was documented for this compound, CN(C)c1cc(CNCC(C)(C)C)c(O)c2c1C[C@H]1C[C@H]3[C@H](N(C)C)C(O)=C(C(N)=O)C(=O)[C@@]3(O)C(O)=C1C2=O [Compound 1] ?
25.8

====

# method: Intra-pulmonary (ELF, AC/AM by BAL) and plasma PK after multiple iv doses in healthy adult subjects
# Format: in vivo, human
# setup.conditions: human, alveolar macrophages (AM); 4 h after fifth 100 mg iv dose; read-out: AM concentration (mean ± SD)
measured.endpoint: concentration at 4 h (ng/mL)
// return numeric value only (unit: ng/mL, not printed)

What concentration at 4 h value was documented for this molecule, CN(C)c1cc(CNCC(C)(C)C)c(O)c2c1C[C@H]1C[C@H]3[C@H](N(C)C)C(O)=C(C(N)=O)C(=O)[C@@]3(O)C(O)=C1C2=O ?
18000

====

# method: Phase 1 multiple oral dose (300, 450, 600 mg) study: plasma PK, healthy adult subjects
# setup.conditions: human, in vivo, po, 450 mg
measured.endpoint: AUC(0-t) (ng·h/mL)
// return numeric value only (unit: ng·h/mL, not printed)

What AUC(0-t) value was documented for this compound, CN(C)c1cc(CNCC(C)(C)C)c(O)c2c1C[C@H]1C[C@H]3[C@H](N(C)C)C(O)=C(C(N)=O)C(=O)[C@@]3(O)C(O)=C1C2=O ?
8980

====

# method: Intra-pulmonary (ELF, AC/AM by BAL) and plasma PK after multiple iv doses in healthy adult subjects
# Type: in vivo, human
# setup.conditions: human, plasma; 2 h after fifth 100 mg iv dose; read-out: Plasma concentration at time of BAL (mean ± SD)
# Description: Concomitant blood samples were taken to compare tissue with serum antibiotic concentrations. […] One standard bronchoscopy was performed for each subject. […] A blood sample was taken at the time of bronschoscopy for plasma urea measurement. […] All the biofluid concentrations were expressed in ng/mL. All concentrations below the limit of quantification (BLQ) or missing data were labeled as such in the concentration data listings. […]
measured.endpoint: concentration at 2 h (ng/mL)
// return numeric value only (unit: ng/mL, not printed)

What concentration at 2 h value was documented for this molecule, CN(C)c1cc(CNCC(C)(C)C)c(O)c2c1C[C@H]1C[C@H]3[C@H](N(C)C)C(O)=C(C(N)=O)C(=O)[C@@]3(O)C(O)=C1C2=O ?
930

====

# method: Intra-pulmonary (ELF, AC/AM by BAL) and plasma PK after multiple iv doses in healthy adult subjects
# Assay type: in vivo, human
# setup.conditions: human, ELF (epithelial lung fluid from BAL), intravenous, 100 mg, AUC0-24 based on mean concentration at each BAL sampling time; read-out: ELF AUCmean
measured.endpoint: AUC (ng·h/mL)
// return numeric value only (unit: ng·h/mL, not printed)

What AUC value was documented for this compound, CN(C)c1cc(CNCC(C)(C)C)c(O)c2c1C[C@H]1C[C@H]3[C@H](N(C)C)C(O)=C(C(N)=O)C(=O)[C@@]3(O)C(O)=C1C2=O ?
17200
